Listed molecules paired with reported IC50
- experimental-system: SAE1 (Homo sapiens (Human), UniProt Q9UBE0+Q9UBT2)
- Sequence (Q9UBE0 whole entry): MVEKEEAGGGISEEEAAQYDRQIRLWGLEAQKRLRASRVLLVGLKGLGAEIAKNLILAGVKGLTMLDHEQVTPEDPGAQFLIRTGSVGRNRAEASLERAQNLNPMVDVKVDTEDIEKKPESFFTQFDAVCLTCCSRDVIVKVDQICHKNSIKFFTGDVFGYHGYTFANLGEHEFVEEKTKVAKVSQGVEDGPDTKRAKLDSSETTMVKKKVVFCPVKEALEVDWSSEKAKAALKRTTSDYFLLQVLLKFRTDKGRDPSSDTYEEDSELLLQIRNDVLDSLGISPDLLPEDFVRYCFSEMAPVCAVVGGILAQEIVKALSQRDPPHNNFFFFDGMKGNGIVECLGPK
- Sequence (Q9UBT2 whole entry): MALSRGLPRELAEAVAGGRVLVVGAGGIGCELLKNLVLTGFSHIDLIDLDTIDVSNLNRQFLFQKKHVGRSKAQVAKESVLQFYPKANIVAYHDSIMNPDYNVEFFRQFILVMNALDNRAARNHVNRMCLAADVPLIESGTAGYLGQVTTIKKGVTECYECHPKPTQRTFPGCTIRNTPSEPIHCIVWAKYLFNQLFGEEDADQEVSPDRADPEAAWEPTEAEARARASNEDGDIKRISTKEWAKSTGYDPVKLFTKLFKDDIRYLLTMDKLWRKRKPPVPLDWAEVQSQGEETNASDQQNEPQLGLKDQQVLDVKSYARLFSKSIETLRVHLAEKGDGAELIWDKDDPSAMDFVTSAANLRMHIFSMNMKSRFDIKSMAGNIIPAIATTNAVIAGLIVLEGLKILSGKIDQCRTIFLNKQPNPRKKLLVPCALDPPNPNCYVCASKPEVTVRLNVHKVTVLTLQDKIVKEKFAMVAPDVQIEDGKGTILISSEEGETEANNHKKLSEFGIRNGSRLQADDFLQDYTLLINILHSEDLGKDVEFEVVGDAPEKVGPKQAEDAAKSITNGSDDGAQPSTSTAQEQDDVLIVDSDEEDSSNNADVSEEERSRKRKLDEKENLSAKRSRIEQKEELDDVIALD
- measurement-notes: SAE High Throughput Biochemical Assay (HTRF), 15 min preincubation
- condition: read-out: 15 min preincubation HTRF IC50 (μM) Ave, SAE1 12.5 nM, ATP 100 μM
reported-property: IC50 (µM)

[[record]]
molecule = "CCn1cc(-c2ccccc2[C@@H]2CN(C(=O)/C=C/C(C)NC)Cc3sc(C#N)cc32)c(C(F)(F)F)n1 (stereo partly shown)"
reported_property = "IC50"
unit = "µM"
observed = 9.55

[[record]]
molecule = "CCn1cc(-c2ccccc2[C@@H]2CN(C(=O)/C=C/CNC3CC3)Cc3sc(C#N)cc32)c(C(F)(F)F)n1"
reported_property = "IC50"
unit = "µM"
observed = 1.74

[[record]]
molecule = "CC(C(=O)N(C)C)n1cc(-c2ccccc2[C@@H]2CN(C(=O)/C=C/CN(C)C)Cc3sc(C#N)cc32)c(C(F)(F)F)n1 (stereo partly shown) [Example 164]"
reported_property = "IC50"
unit = "µM"
observed = 10.9

[[record]]
molecule = "CCn1cc(-c2c(F)cccc2[C@@H]2CN(C(=O)/C=C/[C@@H]3C[C@@H](F)CN3)Cc3sc(C#N)cc32)c(C(F)(F)F)n1"
reported_property = "IC50"
unit = "µM"
observed = 0.43

[[record]]
molecule = "CN(C)C/C=C/C(=O)N1Cc2sc(C#N)cc2[C@H](c2ccccc2-c2cn(-c3c(F)cncc3Cl)nc2C(F)(F)F)C1"
reported_property = "IC50"
unit = "µM"
observed = 2.91

[[record]]
molecule = "CN(C)C/C=C/C(=O)N1Cc2sc(C#N)cc2[C@H](c2ccccc2-c2cn(-c3ncccc3F)nc2C(F)(F)F)C1"
reported_property = "IC50"
unit = "µM"
observed = 6.37

[[record]]
molecule = "CCn1cc(-c2cc(C(F)F)ccc2C2CN(C(=O)/C=C/CN(C)C)Cc3sc(C#N)cc32)c(C(F)(F)F)n1 (stereo not shown)"
reported_property = "IC50"
unit = "µM"
observed = 18

[[record]]
molecule = "CCn1cc(-c2ccccc2[C@@H]2CN(C(=O)/C=C/CN3CCCC3)Cc3sc(C#N)cc32)c(C(F)(F)F)n1"
reported_property = "IC50"
unit = "µM"
observed = 3.3

[[record]]
molecule = "Cn1cc(-c2c(F)cccc2[C@@H]2CN(C(=O)/C=C/[C@@H]3CCCN3)Cc3sc(C#N)cc32)c(C(F)(F)F)n1"
reported_property = "IC50"
unit = "µM"
observed = 0.75

[[record]]
molecule = "CCn1cc(-c2ccccc2[C@@H]2CN(C(=O)/C=C/[C@@H]3C[C@@H]4C[C@@H]4N3)Cc3sc(C#N)cc32)c(C(F)(F)F)n1"
reported_property = "IC50"
unit = "µM"
observed = 1.16


====

- experimental-system: SAE1 (Homo sapiens (Human), UniProt Q9UBE0+Q9UBT2)
- measurement-notes: SAE High Throughput Biochemical Assay (HTRF), 15 min preincubation
- condition: read-out: 15 min preincubation HTRF IC50 (μM) Ave, SAE1 12.5 nM, ATP 100 μM
Please respond with 1.0 when measured IC50 is strictly beneath 2 µM, and with 0.0 in all other cases.

[[record]]
compound = "CCn1cc(-c2sccc2C2CN(C(=O)/C=C/CN(C)C)Cc3sc(C#N)cc32)c(C(F)(F)F)n1 (stereo not shown)"
cat = 0.0

[[record]]
compound = "CCn1cc(-c2c(F)cccc2[C@@H]2CN(C(=O)/C=C/[C@@H]3C[C@H]4C[C@H]4N3)Cc3sc(C#N)cc32)c(C(F)(F)F)n1"
cat = 1.0

[[record]]
compound = "CCn1cc(-c2c(F)cccc2[C@@H]2CN(C(=O)/C=C/[C@H]3CCN3)Cc3sc(C#N)cc32)c(C(F)(F)F)n1"
cat = 1.0

[[record]]
compound = "CCn1cc(-c2c(C(F)F)cccc2C2CN(C(=O)/C=C/CN(C)C)Cc3sc(C#N)cc32)c(C(F)(F)F)n1 (stereo not shown)"
cat = 0.0

[[record]]
compound = "C=CC(=O)N1Cc2sc(C#N)cc2C(c2ccc(N)cc2-c2cn(CC)nc2C(F)(F)F)C1 (stereo not shown)"
cat = 0.0

[[record]]
compound = "CN(C)C/C=C/C(=O)N1Cc2sc(C#N)cc2[C@H](c2ccccc2-c2c[nH]nc2C(F)(F)F)C1"
cat = 0.0

[[record]]
compound = "CCn1cc(-c2ccccc2[C@@H]2CN(C(=O)C#C[C@]3(C)CCCN3)Cc3sc(C#N)cc32)c(C(F)(F)F)n1"
cat = 1.0


====

- measurement-notes: Plasma protein binding, equilibrium dialysis, mouse plasma
- Type: in vitro ADME
- condition: 5 hours at 37° C., read-out: PPB % bound Mouse (converted)
reported-property: fraction unbound at 5 h, 1 μM

[[record]]
compound = "C=CC(=O)N1Cc2sc(C#N)cc2[C@H](c2cccc(F)c2-c2cn(CC)nc2C(F)(F)F)C1 [Compound 227]"
reported_property = "fraction unbound at 5 h, 1 μM"
censoring_sign = "="
observed = 0.021

[[record]]
compound = "C=CC(=O)N1Cc2sc(C#N)c(C)c2[C@H](c2cccc(F)c2-c2cn(CC)nc2C(F)(F)F)C1 [Compound 222]"
reported_property = "fraction unbound at 5 h, 1 μM"
censoring_sign = "="
observed = 0.005

[[record]]
compound = "CCn1cc(-c2c(F)cccc2[C@@H]2CN(C(=O)/C=C/CN(C)C)Cc3sc(C#N)c(C)c32)c(C(F)(F)F)n1 [Example 46]"
reported_property = "fraction unbound at 5 h, 1 μM"
censoring_sign = "="
observed = 0.013

[[record]]
compound = "CCn1cc(-c2c(F)cccc2[C@@H]2CN(C(=O)/C=C/CNC)Cc3sc(C#N)c(C)c32)c(C(F)(F)F)n1 [Example 217]"
reported_property = "fraction unbound at 5 h, 1 μM"
censoring_sign = "="
observed = 0.026

[[record]]
compound = "CCn1cc(-c2c(F)cccc2[C@@H]2CN(C(=O)/C=C/[C@H](C)NC)Cc3sc(C#N)cc32)c(C(F)(F)F)n1 [Example 89]"
reported_property = "fraction unbound at 5 h, 1 μM"
censoring_sign = "="
observed = 0.024

[[record]]
compound = "CCn1cc(-c2c(F)cccc2[C@@H]2CN(C(=O)/C=C/CNC)Cc3sc(C#N)cc32)c(C(F)(F)F)n1 [Example 50]"
reported_property = "fraction unbound at 5 h, 1 μM"
censoring_sign = "="
observed = 0.039

[[record]]
compound = "C=CC(=O)N1Cc2sc(Cl)cc2[C@H](c2ccccc2-c2cn(CC)nc2C(F)(F)F)C1 [Comp. Ex. 1, reference compound]"
reported_property = "fraction unbound at 5 h, 1 μM"
censoring_sign = "<"
observed = 0.001

[[record]]
compound = "CCn1cc(-c2c(F)cccc2[C@@H]2CN(C(=O)/C=C/CN(C)C)Cc3sc(C#N)cc32)c(C(F)(F)F)n1 [Example 215]"
reported_property = "fraction unbound at 5 h, 1 μM"
censoring_sign = "="
observed = 0.023


====

- measurement-notes: Solubility Evaluation
- Type: physicochemical
- condition: PBS (phosphate buffered saline), aqueous buffer, kinetic from dmso stock; phosphate buffered saline pH 7.4, 1% DMSO, 1 hour at RT; read-out: Solubilities PBS
reported-property: solubility at 1 h (µM)

[[record]]
smiles_input = "CCn1cc(-c2c(F)cccc2[C@@H]2CN(C(=O)/C=C/CNC)Cc3sc(C#N)cc32)c(C(F)(F)F)n1"
reported_property = "solubility at 1 h"
unit = "µM"
observed = 30

[[record]]
smiles_input = "CCn1cc(-c2c(F)cccc2[C@@H]2CN(C(=O)/C=C/[C@H](C)NC)Cc3sc(C#N)cc32)c(C(F)(F)F)n1"
reported_property = "solubility at 1 h"
unit = "µM"
observed = 78

[[record]]
smiles_input = "C=CC(=O)N1Cc2sc(C#N)c(C)c2[C@H](c2cccc(F)c2-c2cn(CC)nc2C(F)(F)F)C1"
reported_property = "solubility at 1 h"
unit = "µM"
observed = 41

[[record]]
smiles_input = "CCn1cc(-c2c(F)cccc2[C@@H]2CN(C(=O)/C=C/[C@@H]3CCCN3)Cc3sc(C#N)cc32)c(C(F)(F)F)n1"
reported_property = "solubility at 1 h"
unit = "µM"
observed = 57

[[record]]
smiles_input = "CCn1cc(-c2c(F)cccc2[C@@H]2CN(C(=O)/C=C/CN(C)C)Cc3sc(C#N)c(C)c32)c(C(F)(F)F)n1"
reported_property = "solubility at 1 h"
unit = "µM"
observed = 97


====

Listed compounds paired with reported IC50
- experimental-system: SAE1 (Homo sapiens (Human), UniProt Q9UBE0+Q9UBT2)
- measurement-notes: SAE High Throughput Biochemical Assay (HTRF), 15 min preincubation
- condition: read-out: 15 min preincubation HTRF IC50 (μM) Ave, SAE1 12.5 nM, ATP 100 μM
reported-property: IC50 (µM)

[[record]]
compound = "CCn1cc(C2=C([C@@H]3CN(C(=O)/C=C/CN(C)C)Cc4sc(C#N)cc43)CCCC2)c(C(F)(F)F)n1"
experimental_system = "SAE1 (Homo sapiens (Human), UniProt Q9UBE0+Q9UBT2)"
reported_property = "IC50"
censoring_sign = "="
observed = 2.64

[[record]]
compound = "CC(C(=O)N(C)C)n1cc(-c2ccccc2[C@@H]2CN(C(=O)/C=C/CN(C)C)Cc3sc(C#N)cc32)c(C(F)(F)F)n1 (stereo partly shown) [Example 163]"
experimental_system = "SAE1 (Homo sapiens (Human), UniProt Q9UBE0+Q9UBT2)"
reported_property = "IC50"
censoring_sign = "="
observed = 8.68

[[record]]
compound = "CCn1cc(-c2ccccc2[C@@H]2CN(C(=O)/C=C/[C@@H](COC)NC)Cc3sc(C#N)cc32)c(C(F)(F)F)n1"
experimental_system = "SAE1 (Homo sapiens (Human), UniProt Q9UBE0+Q9UBT2)"
reported_property = "IC50"
censoring_sign = ">"
observed = 25

[[record]]
compound = "C=C(C(=O)N1Cc2sc(C#N)cc2[C@H](c2ccccc2-c2cn(CC)nc2C(F)(F)F)C1)c1ccccc1"
experimental_system = "SAE1 (Homo sapiens (Human), UniProt Q9UBE0+Q9UBT2)"
reported_property = "IC50"
censoring_sign = ">"
observed = 25

